biological target: Hyaluronan mediated motility receptor (Homo sapiens) (UniProt O75330); assay: Inhibition of C-terminal His-tagged 7 kDa RHAMM (unknown origin) binding to HA assessed as association constant at 1000 nM after 240 secs by SPR method
Sequence (O75330 whole entry): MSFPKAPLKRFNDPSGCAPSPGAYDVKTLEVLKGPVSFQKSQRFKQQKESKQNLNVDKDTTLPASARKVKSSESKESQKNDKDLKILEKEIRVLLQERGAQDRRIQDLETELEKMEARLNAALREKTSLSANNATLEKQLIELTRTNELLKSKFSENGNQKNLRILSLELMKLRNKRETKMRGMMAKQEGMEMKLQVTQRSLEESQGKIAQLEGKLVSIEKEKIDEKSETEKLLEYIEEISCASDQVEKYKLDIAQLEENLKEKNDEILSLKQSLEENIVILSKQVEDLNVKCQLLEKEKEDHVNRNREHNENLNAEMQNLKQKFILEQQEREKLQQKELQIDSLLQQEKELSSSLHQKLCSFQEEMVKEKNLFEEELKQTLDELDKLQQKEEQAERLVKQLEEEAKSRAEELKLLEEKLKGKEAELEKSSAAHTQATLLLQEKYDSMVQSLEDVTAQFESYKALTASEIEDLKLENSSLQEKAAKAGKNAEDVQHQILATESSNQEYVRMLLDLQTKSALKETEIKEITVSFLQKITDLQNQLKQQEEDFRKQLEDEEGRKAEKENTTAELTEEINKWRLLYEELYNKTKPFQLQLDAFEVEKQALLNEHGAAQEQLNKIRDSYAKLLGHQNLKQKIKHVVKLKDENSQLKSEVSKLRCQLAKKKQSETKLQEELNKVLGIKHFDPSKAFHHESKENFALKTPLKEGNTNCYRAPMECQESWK
metric: K (×10⁴ /M.s)

Reference set, count: 4
[
  {
    "substance": "H-EEDFGEEAEEEA-NH2",
    "K (×10⁴ /M.s)": 4
  },
  {
    "substance": "H-SVEAEAEEGEEY-NH2",
    "K (×10⁴ /M.s)": 1.3
  },
  {
    "substance": "H-VEGEGEEEGEEY-NH2",
    "K (×10⁴ /M.s)": 4.1
  },
  {
    "substance": "H-FTEAESNMNDLV-NH2",
    "K (×10⁴ /M.s)": 2
  }
]

(I) H-EAFEDEEEEIDG-NH2
(II) H-GEFEEEAEEEVA-NH2
Req: Which entry has a larger number for K, I or II ? Output the label that corresponds to your choice.
Resp: I
(I: 3.4 ×10⁴ /M.s, II: 1.6 ×10⁴ /M.s)
